- Test system: DAPI
- ASSAY_OVERVIEW: TAG lipid buildup inhibition with viability readout – cell-based, panel, Nile Red and DAPI fluorescence, H9c2, dose response (AID 651630);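 also: cells exposed to compound overnight before fixation and staining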
- CONDITIONS_USED: H9c2 cells, DAPI nuclear fluorescence (cytotoxicity counter-readout), oleic acid, mean of runs
Activity calls are given as the source filed them.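 The calls were made as follows: active = lipid-stain IC50 at or below a set limit, with nuclear-stain toxicity IC50 at least five times higher; inactive = the rest.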
Provide the recorded IC50 cytotoxicity (DAPI nuclear signal decrease) for the entries that follow.

Can you look up IC50 cytotoxicity (DAPI nuclear signal decrease) on DAPI for Nc1ccccc1C#Cc1ccccc1 ?
> 25 µM (inactive)

Notebook entry, DAPI assay: IC50 cytotoxicity (DAPI nuclear signal decrease) of CC(C)(C)OC(=O)N(CCc1ccccc1)Cc1ccccc1OCc1cccc(NC(=O)/C=C/c2ccccc2)c1 = ?
> 25 µM (inactive)

// lookup IC50 cytotoxicity (DAPI nuclear signal decrease) | system=DAPI | key= CCCCOc1ccccc1C1CC(=O)NC2=C1C(=O)CCC2 (stereo not given)
> 25 µM (inactive)

Value wanted: IC50 cytotoxicity (DAPI nuclear signal decrease) (DAPI) of entry CCOC(=O)/C(=N\Nc1ccc(Cl)cc1)c1csc(Nc2ccccc2)n1
22.5 µM (inactive)

Tell me reported IC50 cytotoxicity (DAPI nuclear signal decrease) for O=C(CCC(=O)N1CCOc2ccc(Cl)cc21)NCCCN1CCC(Cc2ccccc2)CC1 , tested with DAPI.
15.1 µM (inactive)

What measured IC50 cytotoxicity (DAPI nuclear signal decrease) is associated with Oc1ccc(C[C@H]2CNC(=S)N2CC2CCCN2C[C@H](Cc2ccc(O)cc2)N2C[C@H](Cc3ccc(O)cc3)N(CC3CCCCC3)C2=S)cc1 (stereo not given in full) on DAPI?
> 25 µM (inactive)

Record lookup: for DAPI, what IC50 cytotoxicity (DAPI nuclear signal decrease) belongs to CC1(C)Cc2nc3sc4c(SCC(=O)NCc5ccco5)ncnc4c3cc2CO1 ?
> 25 µM (inactive)

Fill in the recorded IC50 cytotoxicity (DAPI nuclear signal decrease) for this molecule, with DAPI as test system: C[C@H]1CN([C@@H](C)CO)C(=O)c2cc(NC(=O)Nc3cccc4ccccc34)ccc2O[C@@H]1CN(C)Cc1ccc(-c2ccccc2)cc1
> 25 µM (inactive)

Form entry - test system: DAPI; read-out: IC50 cytotoxicity (DAPI nuclear signal decrease); molecule: COC(=O)c1c(NC(NC(=O)C(C)(C)C)C(Cl)(Cl)Cl)sc2c1CCC2 (stereo not given)
> 25 µM (inactive)

Form field - read-out: IC50 cytotoxicity (DAPI nuclear signal decrease); system: DAPI; submitted item: COc1ccc(C(=O)Nc2sc3c(c2C(=O)NCc2ccco2)CCCC3)cc1OC
> 25 µM (inactive)

Entry COC(=O)c1cc(NC(=O)c2c(Cl)nc3sccn23)cc(C(=O)OC)c1 , system DAPI: what IC50 cytotoxicity (DAPI nuclear signal decrease) was measured?
> 25 µM (inactive)

// map CCOC(=O)C(C)Oc1cccc2c(=O)n(CC(=O)NCc3ccc4c(c3)OCO4)ccc12 (stereo not given) to recorded IC50 cytotoxicity (DAPI nuclear signal decrease) (system: DAPI)
> 25 µM (inactive)

Please tell me: IC50 cytotoxicity (DAPI nuclear signal decrease) of Cc1[nH]c2ccccc2c1/C=N/Nc1nc(Nc2ccc(F)cc2)nc(N2CCOCC2)n1 , system DAPI?
> 25 µM (inactive)

Entry CCOc1ccc(C(=O)Nc2nnc(NC(=S)Nc3ccccc3)s2)cc1 , system DAPI: what IC50 cytotoxicity (DAPI nuclear signal decrease) was measured?
> 25 µM (inactive)

// map CCN(C(=O)COC(=O)c1ccc([N+](=O)[O-])o1)c1cccc2ccccc12 to recorded IC50 cytotoxicity (DAPI nuclear signal decrease) (system: DAPI)
20 µM (inactive)

Item: COc1ccccc1Nc1nnc(SCC(=O)Nc2nc(-c3ccc(F)cc3)cs2)s1 Test system: DAPI Read-out: IC50 cytotoxicity (DAPI nuclear signal decrease) Value: ?
> 25 µM (inactive)

Form entry - test system: DAPI; read-out: IC50 cytotoxicity (DAPI nuclear signal decrease); molecule: Cc1cc(N2CCN(Cc3cn(C)nc3-c3cccc(Cl)c3)CC2)cc(C)n1
> 25 µM (inactive)

So what IC50 cytotoxicity (DAPI nuclear signal decrease) did Cc1cccc2sc(NC(=O)C3CCCN(S(=O)(=O)c4cccc5nonc45)C3)nc12 (stereo not given) get with DAPI?
> 25 µM (inactive)

Param readout= IC50 cytotoxicity (DAPI nuclear signal decrease); system= DAPI; entry= COc1ccc(/C=C2/CCCc3ccccc3C2=O)cc1 ; returns value.
> 25 µM (inactive)

Request - read-out IC50 cytotoxicity (DAPI nuclear signal decrease) | tested on DAPI | molecule CC(=O)Nc1ccc(-c2ccnc3c2CC(C(=O)NCc2cccc(Cl)c2)O3)cc1 (stereo not given)
> 25 µM (inactive)
